Origin of measurements: the supplement of paper PMC10567573

- method_summary: protein stability index of a GFP-peptide fusion (GPS, HEK-293T) (PSI 1-6); higher = more stable;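 also: 24-mer peptide tiles fused after GFP, lentivirally expressed, FACS-sorted into six equal bins by GFP/DsRed ratio, decoded by Illumina sequencing, PSI is the read-weighted mean bin number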
- assay_setup: treatment: MLN4924 1 uM, 8 h; c terminus: a fixed tail appended
The reader will find reported protein stability index values listed item by item below.
assay_endpoint: protein stability index

> print(dat)
                        item.sequence           assay.endpoint   val
1   REAQQYSEALASTRILKHSPESSR [GLIPR2]  protein stability index  4.92
2    SNMCINNTLVCNGLQNCVYPWDEN [NETO1]  protein stability index  3.36
3    SQGQWGRAWEVDWFSLASVIFLLL [DHCR7]  protein stability index  2.39
4   DLRADDLPGPAFESYESMELACPA [KLHDC2]  protein stability index  4.72
5   YLWMCSTLALLLNFLACLASFCVE [SCAMP3]  protein stability index  3.02
6  YMSINTHLGKEQSRRDDLEALGHM [CSNK1G1]  protein stability index  3.74
7    YETKKHLVQLPNINRVSTCYSEEI [PPEF2]  protein stability index  3.23

====

The reader will find reported protein stability index values listed item by item below.
- method_summary: protein stability index of a GFP-peptide fusion (GPS, HEK-293T) (PSI 1-6); higher = more stable
- assay_setup: treatment: MLN4924 1 uM, 8 h; c terminus: a fixed tail appended
assay_endpoint: protein stability index

> print(dat)
                          item.sequence   val
 1      VLSSTPDHSFSLELGSEVDITEGD [ATF4]  5.44
 2       DEGGFTCFFRDHSYQEEAAMELKV [MOG]   3.7
 3    NPKWTKWLQKLCCPCCFGRDCLVL [PI4K2A]  2.72
 4   QPLEGGTPNSAGGPGAHILRRKSP [ADAMTS4]  5.37
 5     KAGLENSLAETECRYATQLQQIQG [KRT15]     4
 6    EQTCDPDSSLHWSSSYSPETFRQQ [ZNF396]  4.58
 7      HTTGPTGSAPNSPMALLTIGSSSE [TFE3]  4.54
 8     INVPIRLECVKFASHCLMNHPDLA [PDS5B]  2.27
 9   KTIKSFFPHSGKDCLLCFPETLPE [C8orf76]  3.03
10  RRGRHEQSPTSRPRKVSSLPPRSC [C22orf15]  4.61
11   SAHPVEVFSFDLHEPLSKERVEAF [TMEM175]  3.82
12      PGQEAQRVVCGIDSSMILTVPGQA [NEK8]  3.81
13      PDECGKTEFTRFLCSSPLEAETPP [ATE1]  4.88
14     DLAWMITFYVRFFLTYVPLLGLKA [FADS1]  3.62
15   CLGALCENTCLLRGFSGGILAFLV [TSPAN10]  2.55
16    LQAESPPVDPDSQADTVHSNPELD [DNAAF3]  5.63
17      SYFDRGAKGGSRLCTPEGWFSCQG [DFFB]   2.6
18      GAPSPGSSDVSTAGTGASRSSHSS [ELF3]  5.32
19  ESCEKNDPLSLLDDSKFPIEDTPL [PCDHGA10]  5.46
20    QQQVKTNGAGVTVLRREISELRTK [FBXO28]  4.44
21    SPSPMDPHMAEQTFEQAIQAASRI [CDC25B]  4.56
22     EQLQQILKRKNKQAFLDELESSDL [MNAT1]  3.73
23     LNLEEDRIQIWFQNRRAKLKRSHR [HESX1]  3.16
24  SQGAISEGAQRDRFPGRKQPGVHE [C22orf31]   5.1
25    YNNQSLGHGSHSFIYYENMLLGVP [PKD2L1]  2.23
26      HNAVTSHQRPGWPGQPHSPFPHPT [NCF4]  3.67
27      QPRKGGADWLGLKDEDLDLFPASP [FBF1]  4.79

====

- method_summary: protein stability index of a GFP-peptide fusion (GPS, HEK-293T) (PSI 1-6); higher = more stable
- assay_setup: treatment: DMSO; c terminus: a fixed tail appended
Response key: met means protein stability index >= 4; not met means protein stability index < 4.

> print(dat)
                         item.sequence  category.label
 1    NGRHKIPESQFPEFSTSLFSGSLE [SRPK2]         not met
 2    CPTPARLATTEKKTEQQRRREKAV [NOP53]             met
 3  HRSYLGPGSTSPLETSGNPNGRYG [SLC6A17]             met
 4     QEENKSLREENKALREENRMLSKE [CBY2]             met
 5    YETKKHLVQLPNINRVSTCYSEEI [PPEF2]         not met
 6    MEKMLAGCFLLILGQIVLLPAEAR [MATN2]         not met
 7    NKQAYDLAKALLKRTAQAIEPYIT [PDS5B]         not met
 8     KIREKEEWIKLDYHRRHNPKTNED [IQUB]             met
 9    GRTENGALAPKQELPSALESHEVP [ZNF24]             met
10   KILVGNRLHLAFKRQVPREQAQAY [RAB40A]         not met
11     SLLAGTADGSLRMDDPKGDFITLY [M1AP]         not met
12   PQLRICLRVSPAEQPRLEFLMRKC [FBXO33]         not met
13    VIKMLVNDNKVLRYLAVLESPIPE [EFHC1]         not met
14  STNGELNVDDPTGAHSNAPITAHA [CSNK1G1]             met
15     LFPASPTREAHRESSVPVTPSVPP [FBF1]             met
16     ELPKPEVISQLEQGTELWVAERGT [ZNF8]             met
17     GYREDNIPQLEDVSNFLKERTGFS [TPH1]         not met
18    FGAVVRWAEAECQRQQLPVTFGNK [BTBD1]         not met
19    IDVSKREPPPVKQELPPYNGFGLV [EFHC1]         not met
20   LREKLRLREAEIARIRDEEAQRAS [LRRC45]             met
21  LSQRTITVGVYEAAKLLNVDPDNV [GADD45A]         not met
22    TRAADLLVNPLDPRNADKIRVKIA [SRPK2]         not met
23  GAELHLQPLEGGTPNSAGGPGAHI [ADAMTS4]             met
24     MEKYERIRVVGRGAFGIVHLCLRK [NEK8]         not met
25    SISASSARFVSSGSGGGYGGGMRV [KRT15]         not met

====

- method_summary: protein stability index of a GFP-peptide fusion (GPS, HEK-293T) (PSI 1-6); higher = more stable
- assay_setup: treatment: MLN4924 1 uM, 8 h; c terminus: a fixed tail appended
The reader will find reported protein stability index values listed item by item below.
assay_endpoint: protein stability index

> print(dat)
                          item.sequence   val
 1     DYNQAEMKQRDNCKIRIQRQLEIM [STX11]  3.15
 2    LLTLRNSAQAPPDSISLHQPCNPP [DMRTC1]  3.82
 3   LTSRIKGDWIGLYRHFLKSPNFDG [DENND6A]  2.37
 4      LFSDPRSTRLTRIHLREDLVQDQD [ZER1]  4.55
 5      KDKRRIVSSSQDGKVIVWDSFTTN [GNB5]   3.8
 6  PEELRKVFITYSMDTAMEVVKFVN [TRAF3IP2]  2.08
 7     LDEPNAESDYTYSSSYEQFNGELP [SRPK2]  4.62
 8     NDLDRIAQPNYIPTQQDVLRTRVK [GNAI1]  4.92
 9      GNQLQLNQHCLDTAFNFFKMAVSR [BRF1]  1.96
10    ASHNGISYKDLDVIFGVELPGNEE [TENT5D]  4.01
11     VKDTDDVPMILVGNKCDLEDERVV [RAP1B]  5.02
12     VSSSVIEQLFFVRLVGKTPIETLI [NR2F2]  3.05
13     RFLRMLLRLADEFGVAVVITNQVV [RAD51]  2.45
14    ACIAYIRITQYLDAGGIPRTAQSE [CAMK2A]  2.81
15      MDVMPGEGDLPQMEVGSGSRELSL [EID1]  5.06
16      RKNPYPTKGEKIMLAIITKMTLTQ [IRX6]  2.74
17  FAYKDEYEKFKLYLTIILILISFT [TMEM120A]  2.46
18     GGIETGSITEMFGEFRTGKTQICH [RAD51]  3.71
19    KSELSDGIAILVGSNDRVQGVISQ [TRIM55]  3.52
20   DRSVQRLLATRIAVYLMTFLIVTV [TMEM175]  3.31
21      SDAANRNHEALRQAKQEMNESRRQ [PRPH]  4.96
22    ICAAAGRMGATMAAINSIYSNTDA [GLT8D2]   2.2
23    QRLIKKVQEAVLDKWVNDPHRMDR [GOLPH3]  2.27
24    MNYSEIESKVREATNDDPWGPSGQ [CLINT1]  4.96
25   DYLTVKVWDLNMEARPIETYQVHD [PPP2R2C]  2.86
26    ELRDISSMAMEYFDEKIVPILKRK [FBXO28]     3
27     ADTTTGSAAGPPLSEDDKLQGAAS [EHMT1]  5.51
28     NHVAVAARYAQQKHRIRRVLIVDW [HDAC6]  2.09
29     RERKKLVLENLEDSCVLTGPDDSL [TRIB3]  4.95
30  TEGAFGLYRGLAPNFMKVIPAVSI [SLC25A25]  2.39
31   TLICRKLGGVKKSATLRSFEGLMG [TPD52L3]  2.34
32     ETAPTTVDRTHALMKKIGQCPMRV [CRYL1]  3.68
33    EQGFSQSFTQEQVADIDGQYAMTR [CTNNB1]  4.61
34      QVGRGLRYIHSMSLVHMDIKPSNI [WEE1]  2.08
35   IVGNQVQGAPASSFVYVNPEDGRI [PCDHGC5]  3.48
36      YVLEFSDHPGIHEPLEPEVKYVGN [CPN1]   3.3
37      AWLNEHRKNPYPTKGEKIMLAIIT [IRX6]  2.51
38    RRVKLQLWDTSGQGRFCTIFRSYS [RAB40B]  2.08
39      DSEDFPQAAKQIKDGVTMAPAFRL [FSD1]  4.33
40  QLSPNKHFSLRVQSRANGVKYPEL [PCDHGA10]  3.02
41    PGPPAAPRARRRLGSGPDRELRKP [PWWP2B]  5.12
42      IVALYIASGLTGFIGLEVVAQLFN [ATL3]  3.31
43      ASDYSKKSNVLKLKTADWRVFLFQ [PSD2]  2.23
44     IPIFNETGRFSFTLPYPVKIKVRF [HACD3]  2.77
45     GNNPNGREAKMICFKSVAKTPYDT [ELOA2]  3.93
46    EQYERNKSSSSSSSSSSSSSSSSS [TMEM40]  5.49
47    MSAPGSPDQAYDFLLKFLLVGDRD [RAB40A]  2.42
48      AELVLLTLGQAWQGYVSDIRRFLS [DFFB]  2.06
49    ELVHFLLLKYRAREPVTKAEMLGS [MAGEA3]  2.73
50     VQARMLSSTTILVQWKEPEEPNGQ [PTPRD]  3.19
51     FSDSRSNNDDDEDEDDEDEDEDED [TAF7L]  5.58
52     CPTPARLATTEKKTEQQRRREKAV [NOP53]  5.28
53    EESFRQMVVIHKEIPTGKKDHECS [ZNF232]  4.77
